Biological target: Alpha-1A adrenergic receptor (Rattus norvegicus)
Sequence (P43140 whole entry): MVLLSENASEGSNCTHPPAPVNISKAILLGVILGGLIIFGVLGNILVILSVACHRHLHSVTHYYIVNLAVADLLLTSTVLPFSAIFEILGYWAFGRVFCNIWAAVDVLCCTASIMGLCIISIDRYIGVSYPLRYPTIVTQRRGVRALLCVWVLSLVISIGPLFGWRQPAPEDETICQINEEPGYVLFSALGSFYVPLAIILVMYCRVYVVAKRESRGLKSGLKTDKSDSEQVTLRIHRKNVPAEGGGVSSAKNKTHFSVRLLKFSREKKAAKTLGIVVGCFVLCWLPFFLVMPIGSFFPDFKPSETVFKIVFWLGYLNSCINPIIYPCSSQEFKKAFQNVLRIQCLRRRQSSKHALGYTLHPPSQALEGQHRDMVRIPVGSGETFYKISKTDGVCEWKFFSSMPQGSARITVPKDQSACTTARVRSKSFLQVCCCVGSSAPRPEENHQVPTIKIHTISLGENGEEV
assay-readout: Ki (nM)
Numbers only; they are read as nM.

Entry "O=C1COc2cc(CN3CCN(c4ccc(Cl)cc4)CC3)ccc2N1" , Ki reported as 203

FYI, the data here is from ChEMBL document CHEMBL1132537.
